Recorded inhibition for the following molecules
- studySystem: Cytoplasmic tyrosine-protein kinase BMX (Homo sapiens) (UniProt P51813);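 note: reported value is the mean percent inhibition of BMX, from the GSK PKIS kinase inhibitor screen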
- Sequence (whole entry): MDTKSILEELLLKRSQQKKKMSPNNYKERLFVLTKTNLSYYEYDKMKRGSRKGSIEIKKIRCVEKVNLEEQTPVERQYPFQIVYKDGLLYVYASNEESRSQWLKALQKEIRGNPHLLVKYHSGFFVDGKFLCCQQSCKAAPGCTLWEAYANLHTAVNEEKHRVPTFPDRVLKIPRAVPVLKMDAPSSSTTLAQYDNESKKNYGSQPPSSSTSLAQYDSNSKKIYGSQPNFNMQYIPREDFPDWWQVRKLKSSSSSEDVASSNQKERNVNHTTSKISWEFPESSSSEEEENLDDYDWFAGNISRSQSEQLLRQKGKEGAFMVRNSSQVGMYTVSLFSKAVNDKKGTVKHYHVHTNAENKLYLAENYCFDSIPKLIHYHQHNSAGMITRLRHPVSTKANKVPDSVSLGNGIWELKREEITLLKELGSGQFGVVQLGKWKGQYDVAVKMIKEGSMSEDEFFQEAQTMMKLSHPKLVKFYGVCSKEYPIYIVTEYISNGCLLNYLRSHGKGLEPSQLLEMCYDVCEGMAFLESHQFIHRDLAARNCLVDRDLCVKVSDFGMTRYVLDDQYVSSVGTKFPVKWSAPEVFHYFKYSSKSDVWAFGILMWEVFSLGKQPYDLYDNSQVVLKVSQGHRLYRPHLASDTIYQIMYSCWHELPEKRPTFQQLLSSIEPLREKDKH
- testSettings: at 1 µM
// units = %; emit number, no label

Sample answers from the record:
>>> df
                             moleculesmiles                               studysystem   valuetype  resultvalue
0          CCc1nn2ncccc2c1-c1ccnc(NC2CC2)n1  Cytoplasmic tyrosine-protein kinase BMX (Homo sapiens) (UniProt P51813)  inhibition         5.18
1  CN(C)CCOc1ccc(-c2nc(-c3ccncc3)c(-c3ccc4c(c3)CC/C4=N\O)[nH]2)cc1  Cytoplasmic tyrosine-protein kinase BMX (Homo sapiens) (UniProt P51813)  inhibition         3.36
2  c1cc(-c2cnn3nc(N4CCOCC4)ccc23)nc(NC2CC2)n1  Cytoplasmic tyrosine-protein kinase BMX (Homo sapiens) (UniProt P51813)  inhibition         2.31
3  CNC(=O)c1cc(-c2ccc(F)cc2)cc(-c2ccc(S(=O)(=O)N3CCCC3)cc2)c1N  Cytoplasmic tyrosine-protein kinase BMX (Homo sapiens) (UniProt P51813)  inhibition         2.39
4  COc1cccc(-c2c[nH]c3c(N/N=C/c4ccncc4)ncnc23)c1  Cytoplasmic tyrosine-protein kinase BMX (Homo sapiens) (UniProt P51813)  inhibition         45.1

Turning now to a further molecule:
*Q* Fill in the recorded inhibition for this molecule, with Cytoplasmic tyrosine-protein kinase BMX (Homo sapiens) (UniProt P51813) as test system: `COc1cccc(-n2ncc3c(N/N=C/c4ccc(F)cc4)ncnc32)c1`
*A* 13

* * *

- studySystem: Cyclin-dependent kinase 4 (Homo sapiens);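 note: enzyme tested as the CDK4–cyclin D complex, with the value reported as mean percent inhibition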
- testSettings: at 1 µM
valueType: inhibition (%)
// units = %; emit number, no label

Sample answers from the record:
                                   compound  resultvalue
0  CN1CCC(n2cnc(-c3ccc(F)cc3)c2-c2ccnc(N)n2)CC1         1.34
1    Cc1ccc(O)cc1Nc1ccnc2cc(-c3ccccn3)ccc12         4.45
2  CC1=C(C(=O)Nc2cc(Cl)c3[nH]ncc3c2)C(c2ccc(C(F)(F)F)cc2)CC(=O)N1 (stereo not given)         3.48
3  COc1cc(N2CCN(C(C)C)CC2)ccc1Nc1nc(Nc2ccc(F)cc2C(N)=O)c2cc[nH]c2n1         5.82
4  O=C(Nc1n[nH]c2cc(-c3ccc(F)cc3)ccc12)C1CC1         6.92
5  CS(=O)(=O)CCNCc1coc(-c2ccc3ncnc(Nc4ccc(OCc5ccccc5)cc4)c3c2)c1         3.49

*Q* Which inhibition value is on record for `Nc1ncc(-c2cccc(S(N)(=O)=O)c2)c2scc(-c3ccc(F)c(Cl)c3)c12` ?
*A* 3.55

*Q* Which inhibition value is on record for `CCOc1ccc2c(-c3ccnc(Nc4cccc(C(F)(F)F)c4)n3)cnn2n1` ?
*A* 2.43

*Q* Which inhibition value is on record for `CCn1c(-c2nonc2N)nc2cnc(Oc3cccc(NC(=O)c4ccc(N(C)C)cc4)c3)cc21` ?
*A* 1.34

*Q* Which inhibition value is on record for `COc1ccc(-c2cc3c(N)ncnc3o2)cc1` ?
*A* 3.35

* * *

- studySystem: Tyrosine-protein kinase Fgr (Homo sapiens);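 note: reported values are mean percent inhibition of FGR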
- testSettings: at 0.1 µM
Each record's inhibition is compared with I (below 3%), II (3% to below 4%), III (4% or more) to give its class.

>>> print(df.to_string())
                             moleculesmiles  categorylabel
0  [O-][S+]1CCN(Cc2ccc(-c3ccc4ncnc(Nc5ccc(OCc6cccc(F)c6)c(Cl)c5)c4c3)o2)CC1             II

Now, please, on to the next molecule.
*Q* Categorize the following entry: `COc1cc(N2CCN(C(C)C)CC2)ccc1Nc1nc(Nc2ccc(F)cc2C(N)=O)c2cc[nH]c2n1`
*A* I

* * *

- studySystem: Insulin receptor (Homo sapiens);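 note: each figure is a mean inhibition value from the GSK PKIS screening panel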
- testSettings: at 1 µM
valueType: inhibition

In [3]: df
Out[3]:
                                   compound   valuetype  resultvalue
0  [O-][S+]1CCN(Cc2ccc(-c3ccc4ncnc(Nc5ccc(OCc6cccc(F)c6)c(Cl)c5)c4c3)o2)CC1  inhibition        4.61%

*Q* Which inhibition value is on record for `CCn1c(-c2nonc2N)nc2c(C#CC(C)(C)O)ncc(OC3CCNCC3)c21` ?
*A* 3.32%

*Q* Which inhibition value is on record for `COc1ccc(-c2cc3c(N)ncnc3o2)cc1` ?
*A* 2.44%

*Q* Which inhibition value is on record for `CCN(CC)S(=O)(=O)c1ccc(OC)c(Nc2ncc(-c3ccccc3)o2)c1` ?
*A* 2.35%

*Q* Which inhibition value is on record for `Fc1cccc(COc2ccc(Nc3ncnc4sc(-c5ccco5)cc34)cc2Cl)c1` ?
*A* 2.78%

*Q* Which inhibition value is on record for `CC(C)COC(=O)c1ccc2c(c1)/C(=C/Nc1ccc(S(N)(=O)=O)cc1)C(=O)N2` ?
*A* 2.17%

*Q* Which inhibition value is on record for `CCn1c(-c2nonc2N)nc2c(C#CC(C)(C)O)nc(OC[C@H](N)c3ccccc3)cc21` ?
*A* 1.38%

*Q* Which inhibition value is on record for `Cc1cccc(Nc2ncc(-c3ccccc3)o2)c1` ?
*A* 2.89%

*Q* Which inhibition value is on record for `COc1cccc(-c2c[nH]c3c(N/N=C/c4ccncc4)ncnc23)c1` ?
*A* 3.79%

*Q* Which inhibition value is on record for `c1ccc(-c2nc3n(c2-c2ccc4c(c2)OCO4)CCC3)nc1` ?
*A* 3.26%

*Q* Which inhibition value is on record for `O=C(Nc1n[nH]c2cc(-c3ccc(F)cc3)ccc12)C1CC1` ?
*A* 5.18%

*Q* Which inhibition value is on record for `CCn1c(-c2nonc2N)nc2ccccc21` ?
*A* 1.78%

*Q* Which inhibition value is on record for `Nc1ncc(-c2cccc(S(N)(=O)=O)c2)c2scc(-c3ccc(F)c(Cl)c3)c12` ?
*A* 1.76%

*Q* Which inhibition value is on record for `CNC(=O)c1cncc(/C=C/c2ccccc2Cl)c1` ?
*A* -1.65%

*Q* Which inhibition value is on record for `CN(C)CCOc1ccc(-c2nc(-c3ccncc3)c(-c3ccc4c(c3)CC/C4=N\O)[nH]2)cc1` ?
*A* 2.19%

*Q* Which inhibition value is on record for `COc1ccc(-c2nn3ncccc3c2-c2ccnc(Nc3ccc4c(c3)OCCO4)n2)cc1` ?
*A* 24.1%

*Q* Which inhibition value is on record for `COc1ccc(-c2cc(-c3c[nH]nc3-c3ccccn3)ccn2)cc1` ?
*A* 3.43%

*Q* Which inhibition value is on record for `NS(=O)(=O)c1ccc(N/N=C2\C(=O)Nc3ccc4ncccc4c32)cc1` ?
*A* 27.8%

*Q* Which inhibition value is on record for CC1=C(C(=O)Nc2cc(Cl)c3[nH]ncc3c2)C(c2ccc(C(F)(F)F)cc2)CC(=O)N1 (configuration not stated) ?
*A* 6.02%

*Q* Which inhibition value is on record for `Cc1ccc2c(-c3ccnc(Nc4ccccc4)n3)c(-c3ccc(F)cc3)nn2n1` ?
*A* 7.57%

*Q* Which inhibition value is on record for `COc1cc(N2CCN(C(C)C)CC2)ccc1Nc1nc(Nc2ccc(F)cc2C(N)=O)c2cc[nH]c2n1` ?
*A* 102%

*Q* Which inhibition value is on record for `COc1cccc(-n2ncc3c(N/N=C/c4ccc(F)cc4)ncnc32)c1` ?
*A* 2.69%

*Q* Which inhibition value is on record for `CC(=O)Nc1cccc(C#Cc2cncnc2Nc2ccc(OCc3cccc(F)c3)c(Cl)c2)c1` ?
*A* 1.06%

*Q* Which inhibition value is on record for `c1cc(-c2cnn3nc(N4CCOCC4)ccc23)nc(NC2CC2)n1` ?
*A* 8.56%

*Q* Which inhibition value is on record for `CN1CCC(n2cnc(-c3ccc(F)cc3)c2-c2ccnc(Nc3ccccc3)n2)CC1` ?
*A* 0.39%

*Q* Which inhibition value is on record for `CCn1c(-c2nonc2N)nc2cnc(Oc3cccc(NC(=O)c4ccc(N(C)C)cc4)c3)cc21` ?
*A* 3.14%

*Q* Which inhibition value is on record for `N#Cc1c(NC(=O)CN2CCOCC2)sc2c1CCCC2` ?
*A* 8.64%

Data origin, for the record: ChEMBL document CHEMBL1961873
